- Test system: Trichoderma
- Measurement Protocol: Antifungal activity against Trichoderma sp after 72 to 96 hr by serial dilution method
- Format: functional
Endpoint Label: MIC

molecule="CC1C(=O)CC(C(C)(C)C)NC1C(C)(C)C (stereo not drawn)" endpoint_label=MIC result="16 µg/mL"
molecule="CC1C(=O)CC(C(C)(C)C)N(N=O)C1C(C)(C)C (stereo not drawn)" endpoint_label=MIC result="8 µg/mL"
molecule="CCOC(=O)C1C(=O)CC(C(C)(C)C)N(N=O)C1C(C)(C)C (stereo not drawn)" endpoint_label=MIC result="32 µg/mL"
molecule="CC1C(=O)CC(C(C)(C)C)N(C(C)(C)C)C1C(C)(C)C (stereo not drawn)" endpoint_label=MIC result="16 µg/mL"
molecule="C[C@@H]1[C@H](O)[C@@H](C)/C=C/C=C/C=C/C=C/C=C/C=C/C=C/[C@H](O[C@@H]2O[C@H](C)[C@@H](O)[C@H](N)[C@@H]2O)C[C@@H]2O[C@](O)(C[C@@H](O)C[C@@H](O)[C@H](O)CC[C@@H](O)C[C@@H](O)CC(=O)O[C@H]1C)C[C@H](O)[C@H]2C(=O)O [AMPHOTERICIN B]" endpoint_label=MIC result="32 µg/mL"
molecule="CCOC(=O)C1C(=O)CC(C(C)(C)C)N(C(C)(C)C)C1C(C)(C)C (stereo not drawn)" endpoint_label=MIC result="> 512 µg/mL"
molecule="CCOC(=O)C1C(=O)CC(C(C)(C)C)NC1C(C)(C)C (stereo not drawn)" endpoint_label=MIC result="32 µg/mL"
molecule="CC(C)(C)C1CC(=NO)CC(C(C)(C)C)N1 (stereo not drawn)" endpoint_label=MIC result="16 µg/mL"
molecule="CC(C)(C)C1CC(=O)CC(C(C)(C)C)N1N=O (stereo not drawn)" endpoint_label=MIC result="> 512 µg/mL"
molecule="CC(C)(C)C1CC(=O)CC(C(C)(C)C)N1C(C)(C)C (stereo not drawn)" endpoint_label=MIC result="16 µg/mL"
molecule="CC(C)(C)C1CC(=O)CC(C(C)(C)C)N1 (stereo not drawn)" endpoint_label=MIC result="8 µg/mL"
molecule="CCOC(=O)C1/C(=N\\O)CC(C(C)(C)C)NC1C(C)(C)C (stereo not drawn)" endpoint_label=MIC result="8 µg/mL"
molecule="CC1/C(=N/O)CC(C(C)(C)C)NC1C(C)(C)C (stereo not drawn)" endpoint_label=MIC result="8 µg/mL"
